Sourced from ChEMBL document CHEMBL4610061

assayed-target: Hydroxycarboxylic acid receptor 1 (Homo sapiens, UniProt Q9BXC0)
Sequence (Q9BXC0 whole entry): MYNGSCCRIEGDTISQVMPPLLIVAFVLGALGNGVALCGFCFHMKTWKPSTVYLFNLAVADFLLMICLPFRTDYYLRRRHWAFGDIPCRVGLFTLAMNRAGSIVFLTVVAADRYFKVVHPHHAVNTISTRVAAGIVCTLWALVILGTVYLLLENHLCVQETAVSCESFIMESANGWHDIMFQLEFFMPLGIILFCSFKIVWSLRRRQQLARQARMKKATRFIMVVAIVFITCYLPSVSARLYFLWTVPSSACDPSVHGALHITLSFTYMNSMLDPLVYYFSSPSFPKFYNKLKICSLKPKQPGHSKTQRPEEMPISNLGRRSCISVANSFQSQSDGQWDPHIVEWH
method-description: Agonist activity at human GPR81 overexpressed in CHO cells assessed as inhibition of forskolin-stimulated cAMP production
Could you mark each record yes (1) if its EC50 falls strictly under 500 nM, and no (0) if it equals or exceeds it?

Observe how each entry below is paired with its result.
• CCOc1cc(Cl)c(C(=O)N(C)C(=O)Nc2nc3ccc(CN4CCN(C)CC4)cc3s2)cc1N1CCOCC1 = no (0)
• CCOc1cc(Cl)c(C(=O)Nc2nc3ccc(OC4CCN(C)CC4)cc3s2)cc1N1CCOCC1 = yes (1)
• CCOc1cc(Cl)c(C(=O)Nc2nc3ccc(S(=O)(=O)C4CCN(C)CC4)cc3s2)cc1N1CCOCC1 = no (0)

# input Does this compound meet the criterion EC50 < 500 nM? `CCOc1cc(Cl)c(-c2ccc(-c3nc4ccccc4s3)c(=O)[nH]2)cc1N1CCOCC1`
# output yes (1)

# input Does this compound meet the criterion EC50 < 500 nM? `CCOc1cc(Cl)c(C(=O)NC(=O)Nc2nc3c(s2)CN(C(=O)CO)CC3)cc1N1CCOCC1`
# output no (0)

# input Does this compound meet the criterion EC50 < 500 nM? `CCOc1cc(Cl)c(C(=O)NC(=O)Nc2nc3ccc(CN4CCN(C)CC4)cc3s2)cc1N1CCCC1`
# output yes (1)

# input Does this compound meet the criterion EC50 < 500 nM? `CCOc1cc(Cl)c(-c2ccc(-c3nc4c(s3)CN(C(=O)COC)CC4)c(=O)[nH]2)cc1N1CCOCC1`
# output yes (1)

# input Does this compound meet the criterion EC50 < 500 nM? `CCOc1cc(Cl)c(C(=O)Nc2nc3ccc(S(=O)(=O)CCCN4CCN(C)CC4)cc3s2)cc1N1CCOCC1`
# output no (0)

# input Does this compound meet the criterion EC50 < 500 nM? `CCOc1cc(Cl)c(C(=O)NC(=O)Nc2nc3ccc(S(=O)(=O)C4CCN(C)CC4)cc3s2)cc1N1CCOCC1`
# output yes (1)

# input Does this compound meet the criterion EC50 < 500 nM? `CCOc1cc(Cl)c(C(=O)NC(=O)Nc2nc3ccc(CN4CCN(C)CC4)cc3s2)cc1-n1cccc1`
# output yes (1)

# input Does this compound meet the criterion EC50 < 500 nM? `CCOc1cc(Cl)c(C(=O)NC(=O)Nc2nc3ccc(CN4CCN(C)CC4)cc3s2)cc1N1CCOCC1`
# output yes (1)

# input Does this compound meet the criterion EC50 < 500 nM? `Cc1cc(Cl)c(C(=O)NC(=O)Nc2nc3ccc(S(=O)(=O)C4CCN(C)CC4)cc3s2)cc1-n1cccn1`
# output no (0)

# input Does this compound meet the criterion EC50 < 500 nM? `CCOc1cc(C(F)(F)F)c(C(=O)NC(=O)Nc2nc3ccc(CN4CCN(C)CC4)cc3s2)cc1N1CCOCC1`
# output no (0)

# input Does this compound meet the criterion EC50 < 500 nM? `CCOc1cc(Cl)c(C(=O)NC(=O)Nc2nc3c(s2)CCCC3)cc1N1CCOCC1`
# output yes (1)

# input Does this compound meet the criterion EC50 < 500 nM? `CCOc1cc(Cl)c(C(=O)NC(=O)Nc2nc3ccc(CN4CCN(C)CC4)cc3s2)cc1-c1ccn[nH]1`
# output yes (1)

# input Does this compound meet the criterion EC50 < 500 nM? `CCOc1cc(Cl)c(C(=O)NC(=O)Nc2nc3ccc(CN4CCN(C)CC4)cc3s2)cc1-n1cccn1`
# output yes (1)
